UniProtKB P35462: recorded AC50 for assorted compounds
Sequence (P35462 whole entry): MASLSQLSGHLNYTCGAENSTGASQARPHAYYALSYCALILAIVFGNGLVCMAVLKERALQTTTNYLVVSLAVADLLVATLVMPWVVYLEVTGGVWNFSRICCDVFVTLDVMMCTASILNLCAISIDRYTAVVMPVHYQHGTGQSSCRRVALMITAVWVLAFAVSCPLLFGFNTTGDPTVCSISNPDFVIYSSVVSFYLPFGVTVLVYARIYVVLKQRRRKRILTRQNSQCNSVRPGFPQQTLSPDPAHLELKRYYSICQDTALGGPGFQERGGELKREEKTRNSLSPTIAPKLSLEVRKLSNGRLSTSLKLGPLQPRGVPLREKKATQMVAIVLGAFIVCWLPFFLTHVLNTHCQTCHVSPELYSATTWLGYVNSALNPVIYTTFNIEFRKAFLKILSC

INPUT: Look up AC50 of COc1ccc2cc(CCC(C)=O)ccc2c1 and report it.
OUTPUT: > 30 µM

INPUT: Look up AC50 of NS(=O)(=O)c1cc2c(cc1Cl)N=C(CSCc1ccccc1)NS2(=O)=O [BENZTHIAZIDE] and report it.
OUTPUT: > 30 µM

INPUT: Look up AC50 of C[C@@H]1C[C@H]2[C@@H]3CCC4=CC(=O)C=C[C@]4(C)[C@@]3(F)[C@@H](O)C[C@]2(C)[C@@]1(O)C(=O)CO and report it.
OUTPUT: > 30 µM

INPUT: Look up AC50 of Oc1ccc(CCNCCCCCCNCCc2ccccc2)cc1O and report it.
OUTPUT: 0.16 µM
